# targetEntity: Cytochrome P450 2D6 (Homo sapiens) (UniProt P10635)
# Sequence (P10635 whole entry, looked up): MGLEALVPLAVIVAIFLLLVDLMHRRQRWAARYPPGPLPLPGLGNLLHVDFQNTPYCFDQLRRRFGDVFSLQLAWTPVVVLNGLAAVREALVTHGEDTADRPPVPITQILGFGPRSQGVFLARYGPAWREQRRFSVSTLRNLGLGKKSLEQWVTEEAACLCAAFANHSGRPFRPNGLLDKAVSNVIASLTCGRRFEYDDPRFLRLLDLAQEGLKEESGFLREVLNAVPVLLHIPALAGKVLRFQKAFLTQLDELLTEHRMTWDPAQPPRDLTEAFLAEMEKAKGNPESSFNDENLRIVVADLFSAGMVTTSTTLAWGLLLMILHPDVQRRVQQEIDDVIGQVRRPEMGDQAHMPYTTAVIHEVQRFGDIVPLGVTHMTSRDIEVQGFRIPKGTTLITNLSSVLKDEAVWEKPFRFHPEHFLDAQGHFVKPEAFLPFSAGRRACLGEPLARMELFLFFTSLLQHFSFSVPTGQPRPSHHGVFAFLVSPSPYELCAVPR
# experimentSummary: Cytochrome panel assay with activity outcomes
# measurementSetup: recombinant CYP, pro-luciferin dealkylation, luminescence, p450-cyp2d6; series mostly up to 57.1 µM
Out of some 16,000 compounds screened, about 2,600 (16%) were called active. Not shown: some 20% with an inconclusive outcome. The call rests on the fitted dose curve; in most records, active means well fitted curve in the direction sought with a large enough effect; inconclusive means small, poorly fitted or top-dose-only effect, or effect the other way; inactive means no such curve, though single readings can be large or run the other way. Not all results are given here.
Answer with one of the outcomes yes (1) for active, no (0) for inactive

Nc1ccc(N2C(=O)c3ccccc3C2=O)c(Cl)c1 ... no (0)
NC(=NCc1ccc(Cl)c(Cl)c1)NC(=O)c1nc(Cl)c(N)nc1N ... yes (1)
CC(C)(C)c1ccc(S(=O)(=O)/C=C\C#N)cc1 ... no (0)
O=C(C/C=N/OCc1ccc(F)cc1Cl)c1cnc(-c2ccccc2)s1 ... no (0)
Cc1cc(NC(=O)C2CCCC2)n(-c2nc3ccccc3[nH]2)n1 ... no (0)

Name the outcome recorded for Cc1ccc(C(=O)N/N=C\c2cccn2C)cn1 in the assay.
no (0)

Name the outcome recorded for Cc1ccc(S(=O)(=O)CCCS(=O)(=O)c2ccc(C)cc2)cc1 in the assay.
no (0)

Name the outcome recorded for CC(=O)Nc1ccc2nc(C3CCCCC3)[nH]c2c1 in the assay.
yes (1)

Name the outcome recorded for NNC(=O)CCc1ccc2ccc3ccccc3c2c1 in the assay.
yes (1)

Name the outcome recorded for NC(=O)NC(=O)Nc1ccccc1Cl in the assay.
no (0)
